Target or system Tyrosine-protein kinase JAK2 (Homo sapiens, UniProt O60674); metric pIC50; compiled from varied reports.
One number for each entry, as −log10 of the molar value.

N#Cc1cc(-c2ncnc(Nc3ccc(N4CCO[C@H](CO)C4)cc3)n2)ccc1O[C@H]1CCN(C(=O)CO)C[C@H]1F
6.89

List reported pIC50 for each of these molecules:
1. C[C@H](O)C(=O)N1CC[C@H](Oc2ccc(-c3ncnc(Nc4cnn(C5CCOCC5)c4)n3)cc2C#N)[C@H](F)C1
2. NC(=O)c1cc(-c2ccc(C3CC3)nc2)nc2c1[nH]c1cc(N3CCOCC3)ccc12
3. CN(c1nc(Nc2cnn(C)c2)ncc1Cl)C1CCC2(CC1)CCN(C(=O)CC#N)CC2
4. N#CCCC(=O)N1CC[C@H](Oc2ccc(-c3ncnc(Nc4ccc(N5CCN(C6COC6)CC5)cc4)n3)cc2C#N)[C@H](F)C1
5. C[C@H]1CN(C2COC2)CCN1c1ccc(Nc2ncnc(-c3ccc(O[C@H]4CCN(C(=O)CC#N)CC4(F)F)c(C#N)c3)n2)cc1

Output:
[6.51, 9.00, 7.41, 6.16, 7.21]

###

Target or system UniProtKB O60674; metric IC50; compiled from varied reports.

CS(=O)(=O)c1cnc(-c2cnc3[nH]ccc3c2N[C@@H]2CCCN(CCC#N)C2)s1
10 to 100 nM
O=S(=O)(c1cccc2cccnc12)n1ccc2cnc(Nc3ccc(CN4CCC(F)(F)CC4)cc3)nc21
< 20 nM
CCc1nc2cnc3ccoc3c2n1[C@H]1CC[C@H](CC#N)OC1
100 to 1000 nM
C[C@@H](NC(=O)c1ccc(N2CC(CC#N)(n3cc(-c4ncnc5[nH]ccc45)cn3)C2)c(F)c1)C(F)(F)F
≤ 10 nM
Cn1cc(-c2cc3nccn3c(-c3cnn(C4(CC#N)CN(S(=O)(=O)C(F)(F)F)C4)c3)n2)cn1
< 10 nM
O=S(=O)(c1cccc2cccnc12)n1ccc2cnc(Nc3ccc(N4CCNCC4)cc3OC3CCC3)nc21
> 1000 nM
CCC(=O)c1cnc(Nc2ccc([C@@H](C)N3CC(O)C3)cn2)cc1Nc1cccc(-c2ncn(C)n2)c1OC
≥ 500 nM
CN(C)c1ccc(-c2cc(C(N)=O)c3[nH]c4cc(N5CCOCC5)ccc4c3n2)cn1
1 nM

List reported IC50 for each of these compounds:
1. COCCC(C1CCOC1)n1cc(-c2nc(-c3cnn(C)c3)cc3nccn23)cn1 (stereo not drawn)
2. Cc1cc(Nc2nc(N[C@@H]3C[C@H]4CC[C@@H](C3)N4CCC#N)nc3cnccc23)n[nH]1
3. N#CCC1(n2cc(-c3ncnc4[nH]ccc34)cn2)CN(C2CCN(C(=O)c3ccc(-c4nccs4)c(F)c3)CC2)C1

Output:
1: > 1000 nM; 2: 1.15 nM; 3: 10 to 50 nM

List reported IC50 for each of these compounds:
1. Cn1cc(-c2cc3ncc(C#N)n3c(-c3cnn(C(CC#N)C4CC4)c3)n2)cn1 (stereo not drawn)
2. CC#CCn1ccc2cnc(Nc3cnn(CC(=O)OCC)c3)nc21
3. N#Cc1cc(-c2ncnc(Nc3cn[nH]c3)n2)ccc1O[C@H]1CCN(C(=O)CO)C[C@H]1F
4. Cn1nc(Nc2ncc(Cl)c(NC3CCN(c4ccc(C#N)cn4)CC3)n2)cc1C(C)(C)O
5. N#CCNC(=O)CNC(=O)c1ccc(-c2ccnc(Nc3ccc(N4CCOCC4)cc3)n2)cc1

Output:
1: 100 to 1000 nM; 2: 100 to 1000 nM; 3: 432 nM; 4: 0.8 nM; 5: < 100 nM

###

Target or system Tyrosine-protein kinase JAK2 (Homo sapiens, UniProt O60674); metric IC50; compiled from varied reports.

CNC(=O)c1cnc(-c2cnc3[nH]ccc3c2N[C@@H]2CCCN(C(=O)CC#N)C2)o1
≤ 10 nM
CCOC(=O)Cn1cc(Nc2ncc3ccn(C[C@H]4CC[C@H](O)CC4)c3n2)cn1
< 100 nM
CC(C)(O)Cc1nc2ccc(Nc3ncc(Cl)c(NC4CCN(c5ccc(C#N)cn5)CC4)n3)cn2n1
39 nM
CCOC(=O)Cn1cc(Nc2ncc3ccn(CC4CCS(=O)(=O)CC4)c3n2)cn1
1000 to 10000 nM
Cc1ccc2cc1COCCCCNC(=O)c1ccc(c(N)c1)-c1ccnc(n1)N2
1000 to 10000 nM

List reported IC50 for each of these compounds:
1. CC[C@H](C1CCC1)n1cc(-c2nc(-c3cnn(C[C@@H](O)CO)c3)cn3nccc23)cn1 (single isomer, unassigned)
2. COC1CCN(C(=O)c2ccc(Nc3nccc(-c4cnn(C5(CC#N)CC(C#N)C5)c4)n3)cc2)CC1 (single isomer, unassigned)

Output:
100 to 1000 nM
< 100 nM

###

Target or system Tyrosine-protein kinase JAK2 (Homo sapiens); metric IC50; compiled from varied reports.

Worked cases, IC50 given:
CN(CCO)C(=O)N1CC[C@H](Oc2ccc(-c3ncnc(Nc4ccc(N5CCN(C6COC6)CC5)cc4)n3)cc2C#N)[C@H](F)C1
≥ 1000 nM
C[C@@H](O)c1nc2cnc3ccoc3c2n1C1CCN(C(=O)NCC(F)(F)F)CC1
> 1000 nM
Nc1cc2ccc1-c1ccnc(n1)Nc1ccc(OC3CCC3)c(c1)COCCCCNC2=O
101 to 1000 nM
CSCCC(C1CC1)n1cc(-c2nc(-c3cnn(C)c3)cc3nccn23)cn1 (stereo not drawn)
10 to 100 nM
COc1cc(Nc2ncnc(-c3ccc(O[C@H]4CCN(C(=O)[C@H](C)O)CC4(F)F)c(C#N)c3)n2)ccc1N1CCN(C2COC2)CC1
68 nM
Nc1ncnc2c1c(-c1cccc(OC[C@@H]3CCCO3)c1F)cn2[C@H]1C[C@@H](CN2CC[S+]([O-])CC2)C1
> 10000 nM

List reported IC50 for each of these molecules:
1. COc1cc(Nc2nccc(Nc3cccnc3-c3ccccn3)n2)cc(OC)c1OC
2. Cn1cc(-c2cc3nccn3c(-c3cnn(C4(CCF)CN(S(=O)(=O)C(F)(F)F)C4)c3)n2)cn1
3. O=C(CC1CC1)NC12CC(n3cnc4cnc5[nH]ccc5c43)(C1)C2
4. Cc1nc(NC(=O)N2CCC(N3CC(CC#N)(n4cc(-c5ncnc6[nH]ccc56)cn4)C3)CC2)sc1C
5. CCS(=O)(=O)N1CCC(CC(CC#N)n2cc(-c3ccnc(Nc4ccc(N5CCOCC5)cc4)n3)cn2)CC1 (racemic)
6. CC(=O)Nc1cc(Oc2ccc3nc(Nc4cc(N5CCN(C)CC5)cc(C(F)(F)F)c4)n4c3c2CCC4)ccn1

Output:
["> 1000 nM", "10 to 100 nM", "122 nM", "10 to 50 nM", "< 100 nM", "9930 nM"]

###

pIC50: −log10 of the molar value.
Target or system Tyrosine-protein kinase JAK2 (Homo sapiens); metric pIC50; compiled from varied reports.

N#CCC(C1CCCC1)n1cc(-c2ccnc(Nc3ccc(C(=O)NC4CCN(c5ccccn5)C4)cc3)n2)cn1 (mixture of isomers)
> 7.00
COc1ccccc1CNC(=O)c1cccc(Nc2nccc(-c3cnn(C(CC#N)C4CCCC4)c3)n2)c1 (racemic)
> 7.00
CCOC(=O)C(C)n1cc(Nc2ncc3ccn(C[C@H]4CC[C@H](O)CC4)c3n2)cn1 (stereo partly shown)
> 7.00
CN(C)C(=O)C1CCN(C(=O)c2ccc(Nc3nccc(-c4cnn(C(CC#N)C5CCCC5)c4)n3)cc2)CC1 (racemic)
> 7.00
CN(C)c1ccc(C(=O)N2CCC(N3CC(CC#N)(n4cc(-c5ncnc6[nH]ccc56)cn4)C3)CC2)cc1C#N
≥ 8.00

List reported pIC50 for each of these compounds:
1. CN(c1ccccc1Cn1ccc2cnc(Nc3ccc4c(c3)CC(=O)N4)nc21)S(C)(=O)=O
2. CC1CCOCc2cc(ccc2OC2CC2)Nc2nccc(n2)-c2ccc(cc2N)C(=O)NC1 (stereo not shown)

Output:
1: > 7.70; 2: 7.00 to 7.96

###

Target or system Tyrosine-protein kinase JAK2 (Homo sapiens); metric IC50; compiled from varied reports.

Worked cases, IC50 given:
CC(C)Oc1ccc2cc1COc1ccc(cc1)NC(=O)c1ccc(c(N)c1)-c1ccnc(n1)N2
101 to 1000 nM
N#CCC(C1CC1)n1cc(-c2ccnc(Nc3ccc(C(=O)N4[C@@H]5CC[C@H]4C[C@@H](O)C5)cc3)n2)cn1 (mixture of isomers)
< 100 nM
N#Cc1cc(-c2ncnc(Nc3ccc(N4CCN(C5COC5)CC4)c(OC(F)F)c3)n2)ccc1O[C@H]1CCN(C(=O)CO)C[C@H]1F
29 nM
COc1ccc2cc1COCCCCNC(=O)c1ccc(c(C)c1)-c1nc(ncc1C)N2
1000 to 10000 nM
Cn1cc(-c2cc3nccn3c(-c3cnn(C(CCF)C4CCCC4)c3)n2)cn1 (stereo not drawn)
10 to 100 nM

List reported IC50 for each of these compounds:
1. COc1cc(Nc2nc(Nc3ccc(N4CCN(C)CC4)cc3)nc(C)c2C)ccc1Cl
2. Cc1ccc(NC(=O)CCC(F)(F)F)cc1N1CCc2nc(Nc3ccc(OCCN4CCCC4)cc3)ncc2C1
3. C[C@@H](O)c1nc2cnc3ccsc3c2n1C1CCN(CCC#N)CC1
4. N#CCC(C1CCCC1)n1cc(-c2ccnc(Nc3ccc(C(=O)N4[C@@H]5CC[C@H]4C[C@@H](O)C5)cc3)n2)cn1 (mixture of isomers)
5. C[C@H](O)C(=O)N1CCC(Oc2ccc(-c3ncnc(Nc4ccc(C5CCN(C6COC6)CC5)cc4)n3)cc2C#N)CC1
6. N#CCC1(n2cc(-c3ncnc4[nH]ccc34)cn2)CN(C2CCN(Cc3ccnc(Br)c3)CC2)C1

Output:
1: 14000 nM; 2: 21 nM; 3: > 2000 nM; 4: < 100 nM; 5: > 1000 nM; 6: 10 to 50 nM

List reported IC50 for each of these compounds:
1. Cc1cnc2cc(Nc3ncc(Cl)c(NC4CCN(c5ccc(C#N)nn5)CC4)n3)ccn12
2. CS(=O)(=O)C1CN(c2ccc(-c3ncnc(Nc4ccc(N5CCN(C6COC6)CC5)cc4)n3)cc2C#N)C1
3. CCC(=O)c1cnc(Nc2ncc(OC3COC3)cc2F)cc1Nc1cccc(-c2ncn(C)n2)c1OC
4. CCOC(=O)CCn1cc(Nc2ncc3ccn(C[C@@H](CC)C(C)C)c3n2)cn1

Output:
1. 16 nM
2. 68 nM
3. ≥ 500 nM
4. < 100 nM
